target: H1047R PIK3CA enzyme (Homo sapiens, UniProt P42336, H1047R); experiment: ADP-Glo Biochemical PIK3CA Kinase Assay
Sequence (P42336 whole entry H1047R): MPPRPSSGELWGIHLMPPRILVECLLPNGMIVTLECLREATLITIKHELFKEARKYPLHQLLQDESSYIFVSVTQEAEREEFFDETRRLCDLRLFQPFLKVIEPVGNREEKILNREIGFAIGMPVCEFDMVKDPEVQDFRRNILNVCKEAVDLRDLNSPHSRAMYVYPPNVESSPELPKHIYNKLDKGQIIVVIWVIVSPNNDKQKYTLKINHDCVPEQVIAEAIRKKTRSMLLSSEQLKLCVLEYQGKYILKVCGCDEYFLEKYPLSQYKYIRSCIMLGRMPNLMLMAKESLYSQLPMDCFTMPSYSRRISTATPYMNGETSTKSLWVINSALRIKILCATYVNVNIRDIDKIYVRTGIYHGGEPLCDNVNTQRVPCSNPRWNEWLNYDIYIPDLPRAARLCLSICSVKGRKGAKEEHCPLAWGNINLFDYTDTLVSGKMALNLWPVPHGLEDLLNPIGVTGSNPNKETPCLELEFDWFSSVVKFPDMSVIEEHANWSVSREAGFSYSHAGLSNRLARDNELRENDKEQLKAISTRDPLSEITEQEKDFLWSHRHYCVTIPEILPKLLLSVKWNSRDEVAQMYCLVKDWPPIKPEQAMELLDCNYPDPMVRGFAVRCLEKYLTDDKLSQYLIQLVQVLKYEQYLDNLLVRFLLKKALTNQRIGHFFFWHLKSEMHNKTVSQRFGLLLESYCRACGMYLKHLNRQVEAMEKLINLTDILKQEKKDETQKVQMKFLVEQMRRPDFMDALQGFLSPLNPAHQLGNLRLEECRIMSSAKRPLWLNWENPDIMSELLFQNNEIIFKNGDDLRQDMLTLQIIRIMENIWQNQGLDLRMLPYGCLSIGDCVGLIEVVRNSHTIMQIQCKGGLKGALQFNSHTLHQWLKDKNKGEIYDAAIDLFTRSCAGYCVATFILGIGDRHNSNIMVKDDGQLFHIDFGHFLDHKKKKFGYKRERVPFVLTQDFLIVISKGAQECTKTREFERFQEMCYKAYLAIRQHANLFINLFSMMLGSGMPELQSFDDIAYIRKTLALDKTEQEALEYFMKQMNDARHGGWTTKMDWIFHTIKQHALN
Sequence (P27986 whole entry partner): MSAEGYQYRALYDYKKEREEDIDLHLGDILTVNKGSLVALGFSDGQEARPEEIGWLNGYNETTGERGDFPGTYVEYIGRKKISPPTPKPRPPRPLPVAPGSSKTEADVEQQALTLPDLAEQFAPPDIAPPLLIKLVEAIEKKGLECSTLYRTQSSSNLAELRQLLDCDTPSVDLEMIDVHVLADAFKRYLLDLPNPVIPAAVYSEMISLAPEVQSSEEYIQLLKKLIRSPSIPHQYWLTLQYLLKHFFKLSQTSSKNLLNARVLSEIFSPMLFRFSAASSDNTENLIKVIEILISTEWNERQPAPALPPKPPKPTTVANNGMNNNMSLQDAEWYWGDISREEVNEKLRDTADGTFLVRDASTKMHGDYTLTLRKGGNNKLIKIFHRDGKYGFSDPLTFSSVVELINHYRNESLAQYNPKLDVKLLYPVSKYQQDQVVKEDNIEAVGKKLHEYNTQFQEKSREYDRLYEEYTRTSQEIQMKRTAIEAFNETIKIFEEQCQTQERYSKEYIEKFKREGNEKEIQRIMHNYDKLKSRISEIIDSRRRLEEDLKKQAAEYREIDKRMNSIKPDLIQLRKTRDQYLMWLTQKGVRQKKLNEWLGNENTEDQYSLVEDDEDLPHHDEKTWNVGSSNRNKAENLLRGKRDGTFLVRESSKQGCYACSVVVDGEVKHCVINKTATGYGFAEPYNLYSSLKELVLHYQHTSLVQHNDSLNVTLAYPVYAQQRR
Give IC50 for every item shown.

Below, 2 molecules whose answers are already recorded.
C[C@H](O)c1cc(-c2ccc3ncnn3c2)cc2c1[C@@H](c1cc(F)ccc1Cl)NC2=O (single isomer, unassigned) [Compound I-2228] :: 10 to 100 µM
O=C(Nc1cc(Br)cc2c1C(c1c(F)cccc1Cl)NC2=O)c1cc(F)cc(C(F)(F)F)c1 (stereo not drawn) [Compound I-681] :: 1 to 10 µM

Now for the molecule whose IC50 we want.
Q: Which IC50 reading was recorded for the molecule O=C1NC(c2cc(F)ccc2Cl)c2c(NC(=O)N3CCc4cc(Cl)ccc43)cc(Br)cc21 (stereo not drawn) [Compound I-1269] ?
Ans: 1 to 10 µM
